These data points were gathered from patent US20250296953A1.

Quick list: GI50 per entry.
System: 60 different human tumor cell lines
Assay: cells
Settings: HT-29
Reported Property: GI50 (nM)

Molecular String: C[C@]12CC[C@H]3[C@@H](CC=C4c5sc(-c6ccc(O)cc6)nc5CC[C@@]43C)[C@@H]1CC[C@@H]2O
Reported Property: GI50
Experimental Value: 3130

Molecular String: C[C@]12CCc3sc(Nc4ccc(OC(F)(F)F)cc4)nc3C1=CC[C@@H]1[C@@H]2CC[C@]2(C)C(=O)CC[C@@H]12
Reported Property: GI50
Experimental Value: 2390

Molecular String: C[C@]12CCc3sc(NCCc4ccccc4)nc3C1=CC[C@@H]1[C@@H]2CC[C@]2(C)C(=O)CC[C@@H]12
Reported Property: GI50
Experimental Value: 2210

Molecular String: C[C@]12CC[C@H]3[C@@H](CC=C4c5sc(Nc6ccccc6)nc5CC[C@@]43C)[C@@H]1CC[C@@H]2O
Reported Property: GI50
Experimental Value: 2130

Molecular String: C[C@]12CCc3sc(Nc4ccc(F)cc4F)nc3C1=CC[C@@H]1[C@@H]2CC[C@]2(C)C(=O)CC[C@@H]12
Reported Property: GI50
Experimental Value: 2240

Molecular String: C[C@]12CCc3sc(Nc4cccc(O)c4)nc3C1=CC[C@@H]1[C@@H]2CC[C@]2(C)C(=O)CC[C@@H]12
Reported Property: GI50
Experimental Value: 3900

* * *

Quick list: TGI per entry.
Test system: 60 different human tumor cell lines
Conditions: LOX IMVI (Melanoma), five dose

Compound: C[C@]12CC[C@H]3[C@@H](CC=C4c5sc(Nc6ccccc6)nc5CC[C@@]43C)[C@@H]1CC[C@@H]2O [IIIa.10]
TGI: 2.77E−6
--
Compound: C[C@]12CCc3sc(Nc4ccc(OC(F)(F)F)cc4)nc3C1=CC[C@@H]1[C@@H]2CC[C@]2(C)C(=O)CC[C@@H]12 [IIa.19]
TGI: 3.18E−6
--
Compound: C[C@]12CCc3nc(N)sc3C1=CC[C@@H]1[C@@H]2CC[C@]2(C)C(=NNC(N)=O)CC[C@@H]12 [IVb.1]
TGI: 3.12E−6
--
Compound: C[C@]12CC[C@H]3[C@@H](CC=C4c5sc(-c6ccc(O)cc6)nc5CC[C@@]43C)[C@@H]1CC[C@@H]2O [III.5]
TGI: 1.46E−5
--
Compound: C[C@]12CCc3sc(Nc4cccc(O)c4)nc3C1=CC[C@@H]1[C@@H]2CC[C@]2(C)C(=O)CC[C@@H]12 [IIa.17]
TGI: 1.08E−5
--
Compound: C[C@]12CCc3nc(Nc4ccc(O)cc4)sc3C1=CC[C@@H]1[C@@H]2CC[C@]2(C)C(=O)CC[C@@H]12 [IIa.35]
TGI: 3.04E−6
--
Compound: C[C@]12CCc3sc(NCCc4ccccc4)nc3C1=CC[C@@H]1[C@@H]2CC[C@]2(C)C(=O)CC[C@@H]12 [IIa.2]
TGI: 3.17E−6

* * *

System: 60 different human tumor cell lines
Conditions: read-out: LC50; PC-3 (Prostate Cancer), five dose
Quick list: CC50 per entry.

Molecular String: C[C@]12CCc3nc(N)sc3C1=CC[C@@H]1[C@@H]2CC[C@]2(C)C(=NNC(N)=O)CC[C@@H]12
Relation Operator: =
CC50 (µM): 6.01
--
Molecular String: C[C@]12CCc3nc(Nc4ccc(O)cc4)sc3C1=CC[C@@H]1[C@@H]2CC[C@]2(C)C(=O)CC[C@@H]12
Relation Operator: >
CC50 (µM): 100
